# IC50 measurements, system: DYRK1A (Homo sapiens)

Would you please look over these solved cases?
>  <compound>
CC#C[C@H]1[C@@H](C)NC(=O)N1c1nc2c3c(ccc2s1)OCC3 [Example 17]

>  <IC50>
100 to 1000 nM

$$$$
>  <compound>
CC#C[C@@H]1[C@H](COC)NC(=O)N1c1nc2c3c(ccc2s1)OCC3 (single isomer, unassigned) [Example 75]

>  <IC50>
100 to 1000 nM

$$$$
>  <compound>
CC#C[C@H]1[C@H](C(C)C)NC(=O)N1c1nc2c3c(ccc2s1)OCC3 [Example 67]

>  <IC50>
≥ 1000 nM

$$$$
>  <compound>
CC#CC1CNC(=O)N1c1nc2c(ccc3nnn(C)c32)s1 (single isomer, unassigned) [Example 29]

>  <IC50>
100 to 1000 nM

$$$$
>  <compound>
CC#C[C@H]1[C@H]([C@@H](C)O)NC(=O)N1c1nc2c3c(ccc2s1)OCC3 [Example 81]

>  <IC50>
100 to 1000 nM

$$$$
>  <compound>
CC#C[C@H]1[C@H](CN(C)C)NC(=O)N1c1nc2c3c(ccc2s1)OCC3 (single isomer, unassigned) [Example 70]

>  <IC50>
100 to 1000 nM

$$$$
>  <compound>
CC#C[C@@H]1[C@H](CF)NC(=O)N1c1nc2c3c(ccc2s1)OCC3 (relative stereo) [Example 80]

>  <IC50>
< 10 nM

$$$$
>  <compound>
CC#C[C@H]1[C@H](CC)NC(=O)N1c1nc2c3c(ccc2s1)OCC3 (single isomer, unassigned) [Example 72]

>  <IC50>
100 to 1000 nM

$$$$
>  <compound>
CC#CC1CNC(=O)N1c1nc2c3c(ccc2s1)OCC(C)N3C (single isomer, unassigned) [Example 48]

>  <IC50>
100 to 1000 nM

$$$$
>  <compound>
CC#C[C@H]1[C@H](C)NC(=O)N1c1nc2c3c(ccc2s1)OCC3 [Example 4]

>  <IC50>
≥ 1000 nM

$$$$

Kindly state the measured IC50 obtained for CC#C[C@H]1[C@H](CF)NC(=O)N1c1nc2c3c(ccc2s1)OCC3 (single isomer, unassigned) [Example 78] with DYRK1A (Homo sapiens). < 10 nM

Record lookup: for DYRK1A (Homo sapiens), what IC50 belongs to CC#CC1CNC(=O)N1c1nc2c3c(ccc2s1)OCC3 (single isomer, unassigned) [Example 10] ? 100 to 1000 nM
